These measurements were taken from patent US6191288A.

Target system: S. aureus RNAP (Staphylococcus aureus, UniProt P47768+Q2G0N5)
Test method notes: In vitro transcription assay, S. aureus RNAP
pIC50: −log10 of the molar value.

| Compound | Target system | pIC50 |
| --- | --- | --- |
| CCC/C(C)=C/C=C(\C)C(=O)c1c(O)cc(C(C)CC/C=C/NC(=O)OC)oc1=O (racemic) [MYXO A, (±)-Myxopyronin A] | S. aureus RNAP (Staphylococcus aureus, UniProt P47768+Q2G0N5) | 4.62 |
| CCCC/C(C)=C/C=C(\C)C(=O)c1c(O)cc(C(C)CC/C=C/NC(=O)OC)oc1=O (racemic) [MYXO B, (±)-myxopyronin B] | S. aureus RNAP (Staphylococcus aureus, UniProt P47768+Q2G0N5) | 5.86 |

* * *

Each entry below lists one item and its recorded IC50 value.
Target system: Human RNAP (Homo sapiens, UniProt P24928+P30876)
Test method notes: biochemical
Settings: Table II, in vitro transcription; read-out: IC50 human pol II
Experimental: In vitro transcription reactions. [α-^32 P] UTP-incorporated RNA was synthesized in 50 μl reaction volumes containing transcription buffer (50 mM Tris-HCl, pH 8.0, 200 mM KCL, 10 mM MgCl2, 10 mM DTT and 1.5 μM BSA), […] of DNA template, 4 μM UTP containing 5 μl of [α-^32 P] UTP, 400 μM each of ATP, GTP, and CTP. After incubation for 60 minutes at 25 ° C., the reaction is terminated with 100 μl 10% TCA, which also recipitates the newly transcribed RNA.
Measure name: IC50

| Molecule | Measure name | Measured result |
| --- | --- | --- |
| CCC/C(C)=C/C=C(\C)C(=O)c1c(O)cc(C(C)CC/C=C/NC(=O)OC)oc1=O (racemic) [MYXO A, (±)-Myxopyronin A] | IC50 | > 144 µM |
| CCCC/C(C)=C/C=C(\C)C(=O)c1c(O)cc(C(C)CC/C=C/NC(=O)OC)oc1=O (racemic) [MYXO B, (±)-myxopyronin B] | IC50 | > 139 µM |
